Molecular target: Human sEH (hsEH) (Homo sapiens)
Sequence (P34913 1-555): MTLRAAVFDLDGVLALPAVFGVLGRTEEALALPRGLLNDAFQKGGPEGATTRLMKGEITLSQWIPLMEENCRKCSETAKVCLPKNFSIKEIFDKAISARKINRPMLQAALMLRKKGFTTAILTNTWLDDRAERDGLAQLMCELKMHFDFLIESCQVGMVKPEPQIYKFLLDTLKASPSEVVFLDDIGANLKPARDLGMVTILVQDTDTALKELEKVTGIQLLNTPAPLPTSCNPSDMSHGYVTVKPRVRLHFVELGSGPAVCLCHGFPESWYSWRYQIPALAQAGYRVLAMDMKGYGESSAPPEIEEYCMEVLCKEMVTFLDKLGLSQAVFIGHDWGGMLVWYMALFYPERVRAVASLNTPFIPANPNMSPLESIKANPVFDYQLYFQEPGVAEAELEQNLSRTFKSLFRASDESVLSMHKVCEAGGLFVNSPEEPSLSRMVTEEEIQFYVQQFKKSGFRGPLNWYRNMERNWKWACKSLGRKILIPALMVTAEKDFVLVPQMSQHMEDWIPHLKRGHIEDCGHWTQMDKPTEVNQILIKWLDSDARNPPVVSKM
compounds and their reported IC50

- item.smiles: "Fc1ccc2[nH]c(-c3ccc(C(F)(F)F)cc3)nc2c1F"
  IC50: "≤ 1 µM"
- item.smiles: "Cc1cc2nc(Oc3ccc(Br)cc3)[nH]c2cc1C"
  IC50: "≥ 10 µM"
- item.smiles: "Cc1cc2nc(-c3ccc(=O)[nH]c3)[nH]c2cc1C"
  IC50: "≥ 10 µM"
- item.smiles: "N[C@@H](c1ccccc1)c1nc2cc(F)c(F)cc2[nH]1"
  IC50: "≥ 10 µM"
- item.smiles: "O=C(Nc1cc(C(F)(F)F)cc(C(F)(F)F)c1)Nc1nc2ccccc2[nH]1"
  IC50: "≥ 10 µM"
- item.smiles: "Fc1cc2nc(-c3ccnc(C(F)(F)F)c3)[nH]c2cc1F"
  IC50: "1 to 10 µM"
- item.smiles: "Cc1cc2nc(Oc3ccc(OC(F)(F)F)cc3)[nH]c2cc1C"
  IC50: "≥ 10 µM"
- item.smiles: "Cc1cc2nc(Nc3ccc(C(C)(C)C)cc3)[nH]c2cc1C"
  IC50: "1 to 10 µM"
- item.smiles: "Fc1cc2nc(-c3ccc(Oc4ccccc4)cc3)[nH]c2cc1F"
  IC50: "≤ 1 µM"
